- experiment-description: AUClast in male Sprague-Dawley rat at 7 mg/kg,po measured upto 8 hrs by UPLC-MS/MS analysis
- Assay type: ADME, organism-based
- measurement-context: in vivo
endpoint-label: AUC(0-t) at 8 h (ng·h/mL)
Numbers only, in ng·h/mL.

Bench note: what AUC(0-t) at 8 h did O=C(NO)c1ccc(CNC(=O)c2cc(-c3ccc(F)cc3)cn3ccnc23)cc1 show?
54.2

----------
- experiment-description: AUC (0 to infinity) in male Sprague-Dawley rat at 7 mg/kg,po measured upto 8 hrs by UPLC-MS/MS analysis
- Assay type: ADME, organism-based
- measurement-context: in vivo
endpoint-label: AUC(0-inf) (ng·h/mL)
Answers are plain numbers, in ng·h/mL.

Bench note: what AUC(0-inf) did O=C(NO)c1ccc(CNC(=O)c2cc(-c3ccc(F)cc3)cn3ccnc23)cc1 show?
105

Reference for the values: ChEMBL document CHEMBL5550215
